Every entry's value here was drawn from ChEMBL document CHEMBL4041520.

I'd appreciate it if you could supply pIC50 values for the items below.
System: A549
Assay: Antiproliferative activity against human A549 cells after 72 hrs by MTT assay
Type: functional, cell-based
Conditions: A549, 72 h
pIC50: −log10 of the molar value.

In the examples that follow, each entry is paired with its recorded pIC50.
Give the measured pIC50 of "CCCCCc1ccc(C#Cc2c(-c3ccc(CCCCC)cc3)oc3nc(=O)n(Cc4cn(-c5ccc(Cl)cc5)nn4)cc23)cc1" .
< 4.00

Next molecule: "CCCCCCC#Cc1c(CCCCCC)oc2nc(=O)n(Cc3cn(-c4ccc(F)cc4)nn3)cc12"
< 4.00

Next molecule: "O=c1[nH]c(=O)n(Cc2cn(-c3ccccc3F)nn2)cc1Br"
< 4.00

Next molecule: "O=c1nc2oc(CCCCl)c(C#CCCCCl)c2cn1Cc1cn(-c2ccc(Cl)cc2)nn1"
< 4.00

Next molecule: "CCCCCCc1cc2cn(Cc3cn(-c4ccccc4F)nn3)c(=O)nc2o1"
< 4.00

Next molecule: "CCCCCCC#Cc1c(CCCCCC)oc2nc(=O)n(Cc3cn(-c4ccc(Cl)cc4)nn3)cc12"
< 4.00

Answer for every listed entry: what is its pIC50? The entries follow.
1. O=c1[nH]c(=O)n(Cc2cn(Cc3ccccc3)nn2)cc1I
2. CCCCCc1ccc(C#Cc2c(-c3ccc(CCCCC)cc3)oc3nc(=O)n(Cc4cn(Cc5ccccc5)nn4)cc23)cc1

1. < 4.00
2. < 4.00
